- Target Under Test: HLA-A*0201 (human), P04439
Readings of BL50 (half-maximal binding level) for the listed binders
Provide the reading as a plain figure in µM.

Field: example entries. Status: answers known.
FLITGVFDI (modifications not checked) [pp1a-651]: 8.4
VLLSVLQQL (modifications not checked) [pp1a-3848]: 102
YLSSVLLAL (modifications not checked) [pp1a-1652]: 6.7

Let us move to another entry and its BL50 (half-maximal binding level).
Identify the reported BL50 (half-maximal binding level) for the following entry. LLCVLAALV (modifications not checked) [pp1a-2755] 187
